biological target: LASV Pinneo (lineage I) glycoprotein (Lassa virus, strain Pinneo); experiment: cell-based or functional assay
Readout Type: IC50 (neutralization)

Guide cases for IC50 (neutralization), answers given:
10.4B (antibody) VH: DQVQLVQSGGGVVQPGRSLRVSCVTSGFNFRAYGMHWVRQIPGKGLEWVADIWSAETNRHYADSVKGRFTISRDNSKSTLYLQMNSLRAEDTGVYFCAKARPGYDYVVDLWGQGTLVIVSSASTKGPSVFPLAPCSRSTSGGTAALGCLVKDYFPEPVTVSWNSGALTSGVHTFPAVLQSSGL VL: DEIVLTQSPSSLSASVGDRVTITCRASRDINTYLGWFQQRPGKAPKSLIYGASNLQNGVPSRFSGSGSGTYFTLTINGLQTEDFATYYCQQYSIYPLSLGGGTKADMKRTVAAPSVFIFPPSDEQLKSGTASVVCLLNNFYPREAKVQWKVDNALQSGNSQESVTEQDSKDSTYSLSSTLTLSKADYEKHKVYACEVTHQGLSSP    > 20 µg/mL
37.2D (antibody, V domains shown) VH: EVQLVQSGAEVKKPGASVKVSCKASGYTFTKYGISWVRQAPGQGLEWMGWISAFNGYTRYGQRFQGKVTMTTDTSTNTASLEVRTLTSNDTAVYYCARQYPDQYSSSGWPRLFAMDVWGQGTTVIVSP VL: ETTLTQSPATLSVSPGETATLSCRASQNVINNLAWYQQKPGQAPRLLIYGASTRATGIPARFSGSGSGTEFTLTISSMQSEDFAVYYCQQYNDWPRSFGQGTRLDIRR    0.537 µg/mL

Moving on to another binder below.
Param item = 37.2G (antibody, V domains shown) VH: EVQLVESGGGLVKPGGSRRLSCAASGFTFSRDTMTWVRQAPGKGLEWVASISSGSSDINYADSVKGRFTISRDNGKNSLYLHMNSLRADDTAIYYCARDPRSGISGRYGMDVWGQGTTVTVSS VL: DIVLTQSPGTLSLSPGERATLSCRASQSVNSIFLAWYQQKPGQAPRLLIYGASSRATGIPDRFSGSGSGTDFTLTISRLEPEDFAVYYCQQYHSSPKLTFGGGTKVEIKR ; retrieve measured IC50 (neutralization).
> 20 µg/mL
